Test system: SF-539
Test: NCI tumour cell line growth inhibition, 48 h
Activity calls are given as the source filed them. Cut-off read from the data, not from the text of the source: active = GI50 up to about 1.1 µM and inactive = higher.
The categories you may choose from are Y = active, N = inactive

Past entries and their recorded results:
{"molecule": "CN1N=C(c2ccncc2)OC1c1ccc(Cl)cc1Cl (stereo not drawn)", "labelValue": "N"}
{"molecule": "COC(=O)/C=C1/OC(c2ccccc2)=CC1=O", "labelValue": "N"}
{"molecule": "Cc1cc(C)c2c(=O)n(CN3CCN(c4ccccc4)CC3)sc2n1", "labelValue": "N"}
{"molecule": "CCC1CCC2c3c([nH]c4ccccc34)C3C(=O)N(c4ccc(OC)cc4)C(=O)C3C2C1 (stereo not drawn)", "labelValue": "N"}

Ask | // return assay outcome for "[N-]=[N+]=C1N=CN=C1c1nc[nH]n1"
Reply | N

Ask | // return assay outcome for Cc1cc(O)nc(NNC(C#N)c2ccc(O)cc2)n1 (stereo not drawn)
Reply | N
